Tested on: Leishmania chagasi
METHOD: Antileishmanial activity against promastigotes of Leishmania chagasi MHOM/BR/1972/LD after 18 hrs by MTT assay
Assay type: functional, organism-based
MEASUREMENT_NAME: IC50 (µM)
State the answer as a number, implicitly in µM.

CCOC(=O)C1=C(COCCN)NC(C)=C(C(=O)OC)C1c1ccccc1Cl (centres undefined)    2.61
N=C(N)c1ccc(OCCCCCOc2ccc(C(=N)N)cc2)cc1    1.11
COCCOC(=O)C1=C(C)NC(C)=C(C(=O)OC(C)C)C1c1cccc([N+](=O)[O-])c1 (centres undefined)    82.7
COC(=O)C1=C(C)NC(C)=C(C(=O)OC(C)(C)CN(C)CCC(c2ccccc2)c2ccccc2)C1c1cccc([N+](=O)[O-])c1 (centres undefined)    19.2
COC(=O)C1=C(C)NC(C)=C(C(=O)OCCN(C)Cc2ccccc2)C1c1cccc([N+](=O)[O-])c1 (centres undefined)    35.7

Exercise: Bench note: what IC50 did COCCOC(=O)C1=C(C)NC(C)=C(C(=O)OC/C=C/c2ccccc2)C1c1cccc([N+](=O)[O-])c1 (centres undefined) show?
Solution: 33

Exercise: Recorded IC50 of CC1=C(C(=O)OC(C)C)C(c2cccc([N+](=O)[O-])c2)C(C(=O)OC2CN(C(c3ccccc3)c3ccccc3)C2)=C(N)N1 (centres undefined) , please.
Solution: 33.4

Exercise: State the recorded IC50 for this entry: COC(=O)C1=C(C)NC(C)=C(C(=O)OC)C1c1ccccc1[N+](=O)[O-]
Solution: 146

Exercise: Which IC50 value belongs to CCOC(=O)C1=C(C)NC(C)=C(C(=O)OC)C1c1cccc([N+](=O)[O-])c1 (centres undefined) ?
Solution: 64.1
